// data source = paper PMC12040169

Below: a set of entries, each annotated with reported viability at 28.5 h, 10 µM.
run description: in vitro
experimental setup: human, hela cells, % viability
Express it in %; write the number only.

Below: 3 compounds and their reported viability at 28.5 h, 10 µM.
> print(dat)
                                   compound  units.text  observed.value
1  COc1ccc(C(C)NC(=O)CCn2ccc3ccncc32)cc1 (centres unmarked) [CBK284798]           %            92.4
2  Cc1ccc(-c2noc(CNC(=O)CSc3ccccc3)n2)cc1 [CBK270199]           %            91.5
3  CCN1CCN(c2ccc(N3C(=O)N[C@@H](C(C)C)C3=O)cc2)CC1 [CBK287953]           %            87.5

[in] Look up viability at 28.5 h, 10 µM for this compound: O=S(=O)(c1ccc(C(F)(F)F)cc1)N1CCC2(CC1)OCCO2 [CBK044520]
[out] 91.1

[in] Proceed to O=C(Cc1nnn[nH]1)N1CCCC2(CCN(C(=O)c3ccoc3)C2)C1 (centres unmarked) [CBK137077]
[out] 91.8

[in] Proceed to Cn1c(SCC(=O)Nc2cc(C(C)(C)C)no2)nnc1-c1ccc(C(C)(C)C)cc1 [CBK297133]
[out] 89.6

[in] Proceed to Cc1cccc(CC(=O)N2CCCC2c2n[nH]cc2-c2ccncc2)c1 (centres unmarked) [CBK283447]
[out] 90.7

[in] Proceed to O=S(=O)(Nc1nnc(C(F)(F)F)s1)c1ccc(Br)cc1 [CBK200047]
[out] 89.6

====

run description: in vitro
experimental setup: human, hela cells, % viability
Below: a set of entries, each annotated with reported viability at 28.5 h, 10 µM.

> print(dat)
                                   compound  observed.value
1  Cc1n[nH]c(C)c1CNC(=O)C1CCN(Cc2ccc(F)cc2)CC1 [CBK282502]             92%
2  O=C(Nc1cccc(-c2nnn[nH]2)c1)Nc1ccc(Cl)c(Cl)c1 [CBK155454]           96.3%
3  CCN(CC)C(=O)CN1CCC(Oc2cncc(OCc3cccnc3)n2)C1 (stereo not shown) [CBK084461]           92.4%
4  CN(C)CCN(C)C(=O)c1ccc(-c2cccc(Cl)c2Cl)nc1N(C)C [CBK106082]           94.1%

[in] Look up viability at 28.5 h, 10 µM for this compound: COc1ccc(-c2nc3ccccc3s2)cc1NC(=O)c1ccc(OCC(C)C)cc1 [CBK268878]
[out] 94.7%

[in] Proceed to CCN1CCC2(CC1)NC(=O)Cc1cc(OC)c(OC)c(OC)c12 [CBK039868]
[out] 97.6%

[in] Proceed to Cc1ccc(S(=O)(=O)NCC(=O)O)cc1[N+](=O)[O-] [CBK034459]
[out] 114%

[in] Proceed to NS(=O)(=O)c1ccc(CCNCc2ccc3c(c2)OCO3)cc1 [CBK269819C]
[out] 88.5%

[in] Proceed to CCn1c2cc(C)oc2c2cnn(CC(=O)N3CCCCC3)c(=O)c21 [CBK284220]
[out] 90.2%

[in] Proceed to COc1ccccc1-c1cn2ccnc2c(N2CCCC2CO)n1 (stereo not shown) [CBK037266]
[out] 96.5%

[in] Proceed to Cc1cc(C)nc(NC(=N)NC2Cc3ccccc3C2)n1 [CBK287863]
[out] 43.4%

[in] Proceed to CC(C)(C)NCC(O)COc1cccc2c3c(oc12)CCCC3 (stereo not shown) [CBK008871C]
[out] 90.2%

[in] Proceed to CC12CN(S(=O)(=O)c3ccccc3)CC(c3ccccc3)(CN(S(=O)(=O)c3ccccc3)C1)C2=O [CBK268101]
[out] 97%
